Test system: A549
assayText: Cytotoxicity against human A549 cells assessed as growth inhibition at 10 uM after 48 hrs by MTT assay relative to control
Assay type: functional
studyConditions: A549, 48 h, read-out: GI
Please enter Yes where inhibition of growth at 10 µM is greater than or equal to 40%, and No where it is lower.

Examples from the recorded data:
CC1=C(CCCC(=O)OCO/[N+]([O-])=N/N2CCCC2)C(=O)c2c(O)cccc2C1=O ... Yes
CC1=CC(=O)c2c(O)cccc2C1=O ... Yes
CC1=C(CCCC(=O)OCCCO/[N+]([O-])=N/N2CCOCC2)C(=O)c2c(O)cccc2C1=O ... No
CC1=C(CCC(=O)OCCCO/[N+]([O-])=N/N2CCOCC2)C(=O)c2c(O)cccc2C1=O ... No
CC1=C(CCC(=O)OCO/[N+]([O-])=N/N2CCCCC2)C(=O)c2c(O)cccc2C1=O ... Yes

Please check the record [O-]/[N+](=N\OCCl)N1CCOCC1 and state if its inhibition of growth at 10 µM is at or above 40%.
No

Item CC1=C(CCCC(=O)OCCCCO/[N+]([O-])=N/N2CCOCC2)C(=O)c2c(O)cccc2C1=O with inhibition of growth at 10 µM of 40% or above?
No

Quick check, inhibition of growth at 10 µM >= 40%? CC1=C(CCCC(=O)OCCO/[N+]([O-])=N/N2CCOCC2)C(=O)c2c(O)cccc2C1=O
No
